Value source: the supplement of paper PMC10724198

Each entry below lists one item and its recorded protein stability index value.
- Tested on: Saccharomyces cerevisiae
- PROTOCOL: protein stability index of tFT-peptide fusion (C-terminal peptide) (PSI (0-1 scale)); higher = more stable (slower turnover)
- EXPERIMENTAL CONTEXT: genetic background: das1 deletion; temperature: 30 C
RECORDED METRIC: protein stability index

item_sequence="FCTVAKIIQCFL [YDR396W C-terminal 12 aa]" recorded_metric="protein stability index" endpoint_value=0.584
item_sequence="FQSEYNISDILS [CEP3 C-terminal 12 aa]" recorded_metric="protein stability index" endpoint_value=0.703
item_sequence="DASVEQNILAVL [RQT4 C-terminal 12 aa]" recorded_metric="protein stability index" endpoint_value=0.704
item_sequence="PLTNNIRPISIM [YJR115W C-terminal 12 aa]" recorded_metric="protein stability index" endpoint_value=0.689
item_sequence="DMMMLFGAEGDE [TAF7 C-terminal 12 aa]" recorded_metric="protein stability index" endpoint_value=0.721
item_sequence="DEDEDDSTTKEP [GLC8 C-terminal 12 aa]" recorded_metric="protein stability index" endpoint_value=0.679
